meta.source: patent US20170003275A1

pEC50 for assorted compounds
tested on: HeLa cells; test: Cell viability assay (Hoechst cell number); settings: Homo sapiens, 48 h, read-out: 50% Viability
Give only the number. pEC50 is defined as minus log10 of concentration in molar units.

O=c1oc2ccccc2c(O)c1Cc1c(O)c2ccccc2oc1=O [CC] ... 5.00

Turning now to a further record.
Consider the compound Cc1cc2c(C(C)C)c(O)c(O)c(C=O)c2c(O)c1-c1c(C)cc2c(C(C)C)c(O)c(O)c(C=O)c2c1O [CA] and give its recorded pEC50.
6.00

----------
molecular target: recombinant BARS (Rattus norvegicus); construct: His; made in house; assay: NAD competition assay ([3H]-NAD+ binding to BARS, dot blot); details: NAD competition; read-out: affinity for BARS
Quantity measured: Ki

Look up and report measured Ki (recombinant BARS (Rattus norvegicus)) for the following compound: `O=C(O[C@@H]1Cc2c(O)cc(O)cc2O[C@@H]1c1cc(O)c(O)c(O)c1)c1cc(O)c(O)c(O)c1`
~1000 nM

----------
Biological target: recombinant BARS (Rattus norvegicus, UniProt Q9Z2F5)
Construct: His; made in house
Experiment: NAD competition assay ([3H]-NAD+ binding to BARS, dot blot)
Settings: competition with NAD for BARS; read-out: KI
Description: Five μg of recombinant BARS were incubated for 2 h at 37° C. in 100 μl buffer (20 mM HEPES at pH 7.4, 25 mM NaCl and 10 μM [^3H]-NAD^+ (specific activity: 1 μCi/μmol)) in the presence of a range of concentrations (from 0.01 to 100 μM) of the molecules listed in table 1. […] Quantitative analyses were performed using GraphPad Prism Software. […]
Quantity measured: pKi
Give only the number. pKi is defined as minus log10 of concentration in molar units.

Consider the compound `O=C(O[C@@H]1Cc2c(O)cc(O)cc2O[C@@H]1c1cc(O)c(O)c(O)c1)c1cc(O)c(O)c(O)c1` and give its recorded pKi.
6.00

----------
EC50 for assorted compounds
test system: HeLa cells; test: Cell viability assay (Hoechst cell number); settings: Homo sapiens, 48 h, read-out: 50% Viability

# annotated cases, reported EC50 shown
CC(=O)CC(c1ccc(Cl)cc1)c1c(O)c2ccccc2oc1=O (stereo not shown) ... > 100 µM
COc1cc(C2Oc3c(O)cc(C4Oc5cc(O)cc(O)c5C(=O)C4O)cc3C2CO)ccc1O (stereo not shown) ... > 100 µM
O=C1OC(c2c(O)c3ccccc3oc2=O)c2ccccc21 (stereo not shown) ... 10 µM
O=C(CCc1ccc(O)cc1)c1c(O)cc(O)cc1O[C@@H]1O[C@H](CO)[C@@H](O)[C@H](O)[C@H]1O ... > 100 µM

Consider the compound `O=P(O)(O)C(O)(Cc1cccnc1)P(=O)(O)O` and give its recorded EC50.
> 100 µM

Consider the compound CC(=O)CC(c1ccccc1)c1c(O)c2ccccc2oc1=O (stereo not shown) and give its recorded EC50.
> 100 µM

Consider the compound `O=C(O[C@@H]1Cc2c(O)cc(O)cc2O[C@@H]1c1cc(O)c(O)c(O)c1)c1cc(O)c(O)c(O)c1` and give its recorded EC50.
50 µM

Consider the compound `O=C(Nc1ccc([N+](=O)[O-])cc1)Nc1ccc(S(=O)(=O)Nc2ccc(Cl)c(Cl)c2)cc1` and give its recorded EC50.
10 µM

Consider the compound O=C1C2C3c4ccccc4C(c4ccccc43)C2C(=O)N1C(CO)(CO)CO (stereo not shown) and give its recorded EC50.
> 100 µM

Consider the compound `NC(=O)[C@@H]1CCCN1C(=O)[C@H](Cc1cnc[nH]1)NC(=O)[C@@H]1CCC(=O)N1` and give its recorded EC50.
> 100 µM

----------
biological target: recombinant BARS (Rattus norvegicus); construct: His; made in house; assay: NAD competition assay ([3H]-NAD+ binding to BARS, dot blot); details: 0.01 to 100 μM
Quantity measured: competition for the binding of NAD to BARS (selection)

# annotated cases, reported competition for the binding of NAD to BARS (selection) shown
C=C(C)[C@H]1Cc2c(ccc3c2O[C@@H]2COc4cc(OC)c(OC)cc4[C@@H]2C3=O)O1 ... best competitors
CCCCOc1ccc(C2=N/C(=C\c3cc(OC)c(OC)cc3OC)C(=O)O2)cc1 ... best competitors
COc1cc(CNC(=O)CCCC/C=C/C(C)C)ccc1O ... best competitors
O=c1oc2ccccc2c(O)c1Cc1c(O)c2ccccc2oc1=O ... best competitors
O=C(O[C@@H]1Cc2c(O)cc(O)cc2O[C@@H]1c1cc(O)c(O)c(O)c1)c1cc(O)c(O)c(O)c1 ... best competitors
O=P(O)(O)C(O)(Cc1cccnc1)P(=O)(O)O ... best competitors
O=P(O)(O)C(Sc1ccc(Cl)cc1)P(=O)(O)O ... best competitors
Cc1c(Cc2c(Cl)cccc2Cl)c(=O)oc2cc(OCC(=O)OCC(=O)c3ccc(Cl)cc3)ccc12 ... best competitors

Look up and report measured competition for the binding of NAD to BARS (selection) (recombinant BARS (Rattus norvegicus)) for the following compound: `NCc1ccccc1CC(=O)N[C@@H]1C(=O)N2C(C(=O)O)=C(CSc3nnnn3CC(=O)O)CS[C@H]12`
best competitors

Look up and report measured competition for the binding of NAD to BARS (selection) (recombinant BARS (Rattus norvegicus)) for the following compound: CC(=O)CC(c1ccccc1)c1c(O)c2ccccc2oc1=O (stereo not shown)
best competitors

Look up and report measured competition for the binding of NAD to BARS (selection) (recombinant BARS (Rattus norvegicus)) for the following compound: `C#C[C@]1(O)CC[C@H]2[C@@H]3CCc4cc(O)ccc4[C@H]3CC[C@@]21C`
best competitors

Look up and report measured competition for the binding of NAD to BARS (selection) (recombinant BARS (Rattus norvegicus)) for the following compound: CC(=O)CC(c1ccc(Cl)cc1)c1c(O)c2ccccc2oc1=O (stereo not shown)
best competitors

Look up and report measured competition for the binding of NAD to BARS (selection) (recombinant BARS (Rattus norvegicus)) for the following compound: `O=C(Nc1ccc([N+](=O)[O-])cc1)Nc1ccc(S(=O)(=O)Nc2ccc(Cl)c(Cl)c2)cc1`
best competitors

----------
NAD Displac. (%) for assorted molecules
target: recombinant BARS (Rattus norvegicus, UniProt Q9Z2F5); construct: His; made in house; test: NAD competition assay ([3H]-NAD+ binding to BARS, dot blot); settings: 10 μM [3H]-NAD+, molecules 0.01 to 100 μM, 2 h 37° C.
Give the value in % but do not write % after it.

C[C@H]1[C@H](NC(=O)C(=NOC(C)(C)C(=O)O)c2csc(N)n2)C(=O)N1S(=O)(=O)O (stereo in doubt) ... 15
Cc1c(Cc2c(Cl)cccc2Cl)c(=O)oc2cc(OCC(=O)OCC(=O)c3ccc(Cl)cc3)ccc12 ... 23
CC(=O)CC(c1ccccc1)c1c(O)c2ccccc2oc1=O (centres unmarked) ... 15
O=P(O)(O)C(O)(Cc1cccnc1)P(=O)(O)O ... 30

Turning now to a further record.
Consider the molecule `C=C(C)[C@H]1Cc2c(ccc3c2O[C@@H]2COc4cc(OC)c(OC)cc4[C@@H]2C3=O)O1` and give its recorded NAD Displac. (%).
48

----------
EC50 for assorted molecules
test system: HeLa cells; assay: Cell viability assay (Hoechst cell number); details: Homo sapiens, 48 h, read-out: 50% Viability
Give the value in nM but do not write nM after it.

Consider the molecule CO[C@@H]1[C@@H](OC(=O)c2ccc(C)[nH]2)[C@@H](O)C(Oc2ccc3c(O)c(NC(=O)c4[nH]cc(C(=O)Nc5c(O)c6ccc(OC7OC(C)(C)[C@@H](OC)[C@H](OC(=O)c8ccc(C)[nH]8)[C@@H]7O)c(C)c6oc5=O)c4C)c(=O)oc3c2C)OC1(C)C (stereo partly drawn) and give its recorded EC50.
1000

Consider the molecule `C=C(C)[C@H]1Cc2c(ccc3c2O[C@@H]2COc4cc(OC)c(OC)cc4[C@@H]2C3=O)O1` and give its recorded EC50.
1000

----------
test system: HeLa cells; assay: Cell viability assay (Hoechst cell number); details: Homo sapiens, 48 h, read-out: 50% Viability
EC50 for assorted compounds
Give the value in nM but do not write nM after it.

# annotated cases, reported EC50 shown
C#C[C@]1(O)CC[C@H]2[C@@H]3CCc4cc(OC5CCCC5)ccc4[C@H]3CC[C@@]21C ... 1000
NS(=O)(=O)Oc1ccc2c3c(c(=O)oc2c1)CCCCC3 ... 10000

Turning now to a further record.
Look up and report measured EC50 (HeLa cells) for the following compound: `C#C[C@]1(O)CC[C@H]2[C@@H]3CCc4cc(O)ccc4[C@H]3CC[C@@]21C`
1000

----------
biological target: recombinant BARS (Rattus norvegicus, UniProt Q9Z2F5); construct: His; made in house; experiment: NAD competition assay ([3H]-NAD+ binding to BARS, dot blot); conditions: 10 μM [3H]-NAD+, molecules 0.01 to 100 μM, 2 h 37° C.
NAD Displac. (%) for assorted compounds
Give the value in % but do not write % after it.

O=P(O)(O)C(Sc1ccc(Cl)cc1)P(=O)(O)O [C27] ... 20
O=c1oc2ccccc2c(O)c1Cc1c(O)c2ccccc2oc1=O [CC] ... 20
COc1cc(CNC(=O)CCCC/C=C/C(C)C)ccc1O [C6] ... 20
O=C(Nc1ccc([N+](=O)[O-])cc1)Nc1ccc(S(=O)(=O)Nc2ccc(Cl)c(Cl)c2)cc1 [C11] ... 70
NCc1ccccc1CC(=O)N[C@@H]1C(=O)N2C(C(=O)O)=C(CSc3nnnn3CC(=O)O)CS[C@H]12 [C29] ... 35
C#C[C@]1(O)CC[C@H]2[C@@H]3CCc4cc(O)ccc4[C@H]3CC[C@@]21C [C25, 17alpha-Ethynylestradiol] ... 10
CCCCOc1ccc(C2=N/C(=C\c3cc(OC)c(OC)cc3OC)C(=O)O2)cc1 [C10] ... 30
O=C(O[C@@H]1Cc2c(O)cc(O)cc2O[C@@H]1c1cc(O)c(O)c(O)c1)c1cc(O)c(O)c(O)c1 [C7] ... 100

Turning now to a further record.
Consider the compound CC(=O)CC(c1ccc(Cl)cc1)c1c(O)c2ccccc2oc1=O (stereo not drawn) [C4] and give its recorded NAD Displac. (%).
20
